# Protocol Notes: Binding affinity to muscarinic M1 receptor in electrically stimulated New Zealand rabbit vas deferens
# Type: tissue-based, Oryctolagus cuniculus
Measurement Kind: pKd

INSERT INTO measurements (smiles_code, measurement_kind, test_value) VALUES
  ('C[N+]12CCC(CC1)/C(=N/OCC#CCOc1ccon1)C2.[I-]', 'pKd', 3.82),
  ('Cc1cc(OCC#CC[N+](C)(C)C)no1.[I-]', 'pKd', 6.97),
  ('C[N+]1(CC#CCOC2=NOCC2)CCCCC1.[I-]', 'pKd', 6.51),
  ('C[N+](C)(C)CC#CCOC(=O)Nc1cccc(Cl)c1.[Cl-]', 'pKd', 7.2),
  ('Cc1cc(OCC#CCN(C)C)no1.O=C(O)/C=C/C(=O)O', 'pKd', 5.45);

---

# Organism: Cavia porcellus
# Protocol Notes: Intrinsic activity at muscarinic M2 receptor in electrically stimulated guinea-pig left atrium relative to benthanechol
# Format: tissue-based
# Condition Summary: Cardiac atrium
# Lookup of reported Intrinsic activity keyed by entry
Measurement Kind: Intrinsic activity

INSERT INTO results (compound, test_value) VALUES
  ('CC(C[N+](C)(C)C)OC(N)=O (stereo unspecified)', 1),
  ('Cc1cc(OCC#CC[N+](C)(C)C)no1.[I-]', 1),
  ('O=C(O)C(=O)O.O=C1CCON1CC#CCN1CCCCC1', 0.2),
  ('C[N+]1(CC#CCOC2=NOCC2)CCCCC1.[I-]', 1),
  ('C(#CCOc1ccon1)CO/N=C1\CN2CCC1CC2.O=C(O)/C=C/C(=O)O', 0.7),
  ('C(#CCN1CCCC1)COc1cc(-c2ccccc2)on1', 0.6);

---

# Tested System: Muscarinic acetylcholine receptor M1 (Homo sapiens, UniProt P11229)
# Sequence (P11229 whole entry): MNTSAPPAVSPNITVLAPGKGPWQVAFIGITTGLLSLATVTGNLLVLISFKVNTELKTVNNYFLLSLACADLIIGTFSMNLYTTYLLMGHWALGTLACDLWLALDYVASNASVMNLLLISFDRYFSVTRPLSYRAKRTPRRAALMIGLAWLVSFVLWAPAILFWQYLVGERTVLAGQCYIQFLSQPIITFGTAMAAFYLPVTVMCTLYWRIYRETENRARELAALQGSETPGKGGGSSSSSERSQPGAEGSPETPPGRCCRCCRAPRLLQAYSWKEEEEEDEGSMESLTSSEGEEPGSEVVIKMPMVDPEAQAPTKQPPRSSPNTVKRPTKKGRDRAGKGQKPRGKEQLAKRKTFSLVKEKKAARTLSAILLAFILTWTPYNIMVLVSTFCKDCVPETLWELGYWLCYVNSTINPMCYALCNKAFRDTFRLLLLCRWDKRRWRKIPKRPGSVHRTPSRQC
pKi: −log10 of the molar value.
# Lookup of reported pKi keyed by entry
Measurement Kind: pKi

INSERT INTO assay_data (molecule, bound_sign, test_value) VALUES
  ('Cc1cc(OCC#CCN(C)C)no1.O=C(O)/C=C/C(=O)O', '<', 5.00),
  ('C[N+]1(CC#CCOC2=NOCC2)CCc2ccccc21 (stereo not drawn)', '<', 5.00),
  ('C[N+]1(CC#CCOC2=NOCC2)CCCCC1.[I-]', '=', 5.13),
  ('Cc1cc(OCC#CC[N+]2(C)CCCC2)no1.[I-]', '=', 5.11),
  ('O=C1CCON1CC#CCN1CCCC1', '=', 6.04),
  ('O=C(O)C(=O)O.O=C1CCON1CC#CCN1CCCCC1', '=', 6.09),
  ('C(#CCN1CCCCC1)COC1=NOCC1.O=C(O)C(=O)O', '=', 5.34),
  ('Cc1cc(OCC#CC[N+](C)(C)C)no1.[I-]', '<', 5.00);
